Provenance of the data: ChEMBL document CHEMBL1201862

- Tested on: HOP-18
- assay_procedure: NCI tumour cell line growth inhibition, 48 h
Activity calls are given as the source filed them. No stated cut-off is given here; in the data, active = GI50 up to about 1.1 µM and inactive = higher.
readout: GI50

molecule | readout | result
CCOC(=O)N1C(c2ccccc2)C=CC(c2ccccc2)N1C(=O)OCC (stereo not given) | GI50 | > 100 µM (inactive)
O=C(O)CNc1c2ccccc2[n+]([O-])c2ccccc12 | GI50 | 36.1 µM (inactive)
N#CC(C#N)=c1ccc(=C2N3CCCC3CN2C23CC4CC(CC(C4)C2)C3)cc1 (stereo not given) | GI50 | > 100 µM (inactive)
CCCCOCc1cc(CN2CCN(C)CC2)c(O)c2ncccc12 | GI50 | 5.35 µM (inactive)
NC(=O)C(=O)Cc1nc2ccccc2s1 | GI50 | > 100 µM (inactive)
O=c1c(C(c2ccc(Cl)cc2)c2c(O)c3ccccc3n(-c3ccccc3)c2=O)c(O)c2ccccc2n1-c1ccccc1 | GI50 | > 100 µM (inactive)
COC(=O)CCC(NC(=S)N/N=C(\C)c1cnccn1)C(=O)OC (stereo not given) | GI50 | 56.1 µM (inactive)
Cc1c(C(=O)C/C(=N/NC(=O)CC#N)C(N)=O)[n+]([O-])c2ccccc2[n+]1[O-] | GI50 | > 100 µM (inactive)
CCC12C=C(C(=O)OC)N3c4ccccc4C4CCN(CCC1)C2C43 (stereo not given) | GI50 | > 100 µM (inactive)
COC1OC(CO)C(O)C(NC(=O)N(C)N=O)C1O (stereo not given) | GI50 | > 100 µM (inactive)
Nc1cccc(C(=O)/C=C/c2ccccc2O)c1 | GI50 | 84.3 µM (inactive)
CC(C)CCCC(C)[C@H]1CCC2[C@@H]3CCC4Nc5nocc5C[C@]4(C)C3CC[C@@]21C (stereo not given in full) | GI50 | 13.6 µM (inactive)
N#CC(C(=O)CCCC(=O)Nc1ccc(Cl)cc1Cl)c1ccc(Cl)cc1 (stereo not given) | GI50 | 31.7 µM (inactive)
CC(=O)O[C@H]1CC[C@@]2(C)C(=CC[C@H]3C4=CC=C(C(C)=O)[C@@]4(C)CCC32)C1 (stereo not given in full) | GI50 | > 100 µM (inactive)
COc1ccc(-c2cc(O)c3cc4c(cc3n2)OCO4)c(OC)c1OC | GI50 | 96.6 µM (inactive)
